// data source = the supplement of paper PMC6089552

System: A673/TR/shEF
Test: cell viability (LOESS-normalised, relative to median of negative controls) (log2 ratio); higher = more viable cells (less compound effect), active = hit call of the paper (over 3 MAD below the median)
Conditions: 0.103 µM; library screen: screen3; EWS-FLI1 expression: low (doxycycline-induced shRNA knockdown); treatment time: 72 h
Among all 3,200 compounds or so, about 300 (9.4%) showed activity. The sample holds actives, similar compounds and a random draw of the others, so the mix is not that of the screen.
This listing pairs compounds with measured cell viability (log2).

compound	cell viability (log2)
CN1[C@@H]2CC[C@H]1CC(OC(=O)C(CO)c1ccccc1)C2 (stereo partly drawn)	0.0399
CCOC(=O)c1cncn1C(C)c1ccccc1 (stereo not drawn)	0.103
Cc1c(N)nc(C(CC(N)=O)NCC(N)C(N)=O)nc1C(=O)NC(C(=O)NC(C)C(O)C(C)C(=O)NC(C(=O)NCCc1nc(-c2nc(C(=O)NCCC[S+](C)C)cs2)cs1)C(C)O)C(O[C@@H]1O[C@@H](CO)[C@@H](O)[C@H](O)[C@@H]1O[C@H]1O[C@H](CO)[C@@H](O)[C@H](OC(N)=O)[C@@H]1O)c1cnc[nH]1 (stereo partly drawn)	0.135
COP(=S)(OC)SCn1nnc2ccccc2c1=O	0.0283
Cn1c(CCCC(=O)O)nc2cc(N(CCCl)CCCl)ccc21	0.0297
Cc1cccc(C)c1NC(=O)CN1CCCC1=O	-0.000586
CC[C@@]1(O)C(=O)OCc2c1cc1n(c2=O)Cc2cc3ccccc3nc2-1	-0.0714
C[C@@H]1[C@H](O)[C@@H](C)/C=C/C=C/CC/C=C/C=C/C=C/C=C/C(O[C@H]2O[C@H](C)[C@@H](O)[C@H](N)[C@@H]2O)CC2O[C@](O)(CC(O)C(O)CCC(O)CC(O)CC(O)CC(=O)O[C@H]1C)CC(O)C2C(=O)O (stereo partly drawn)	0.00627
